Each entry below carries its reported IC50.
System: K562
Assay: MTT assay, cell proliferation
Format: cell-based
Details: Homo sapiens, 24 h, read-out: IC50, inhibition of cell proliferation

Compound	Value units	Reading qualifier	IC50
CCc1ccc(OC(=O)/C(C)=C\CC23OC(C)(C)C4CC(C=C5C(=O)c6c(O)c7c(c(CC=C(C)C)c6OC542)OC(C)(CCC=C(C)C)C=C7)C3=O)cc1 (centres unmarked) [Compound 21, 4-Ethylphenyl gambogate]	nM	>	80000
CC(C)=CCCC1(C)C=Cc2c(O)c3c(c(CC=C(C)C)c2O1)OC12C(=CC4CC1C(C)(C)OC2(C/C=C(/C)C(=O)Oc1ccc(Br)cc1)C4=O)C3=O (centres unmarked) [Compound 19, 4-Bromophenyl gambogate]	nM	>	80000
CC(=O)Nc1ccc(NC(=O)/C(C)=C\CC23OC(C)(C)C4CC(C=C5C(=O)c6c(O)c7c(c(CC8OC8(C)C)c6OC542)OC(C)(CCC2OC2(C)C)C=C7)C3=O)cc1 (centres unmarked) [Compound 36]	nM	=	280
CC(C)=CCCC1(C)C=Cc2c(O)c3c(c(CC=C(C)C)c2O1)OC12C(=CC4CC1C(C)(C)OC2(C/C=C(/C)C(=O)Nc1nc2ccccc2s1)C4=O)C3=O (centres unmarked) [Compound 34, N-(benzo[d]thiazol-2-yl) gambogamide]	nM	>	20000
CCCC(=O)Nc1ccc(OC(=O)/C(C)=C\CC23OC(C)(C)C4CC(C=C5C(=O)c6c(O)c7c(c(CC=C(C)C)c6OC542)OC(C)(CCC=C(C)C)C=C7)C3=O)cc1 (centres unmarked) [Compound 26, 4-Butyramidophenyl gambogate]	nM	=	770

###

Test system: zebrafish embryos
Assay: Zebrafish toxicity: mortality rate
Type: in vivo, zebrafish (Danio rerio)
Conditions: 1 μM; zebrafish

Compound	Value units	Mortality rates
CC(=O)Nc1ccc(OC(=O)/C(C)=C\CC23OC(C)(C)C4CC(C=C5C(=O)c6c(O)c7c(c(CC=C(C)C)c6OC542)OC(C)(CCC=C(C)C)C=C7)C3=O)cc1 (centres unmarked) [Compound 4, 4-Acetamidephenyl gambogate]	%	0
CC(=O)Nc1ccc(NC(=O)/C(C)=C\CC23OC(C)(C)C4CC(C=C5C(=O)c6c(O)c7c(c(CC=C(C)C)c6OC542)OC(C)(CCC=C(C)C)C=C7)C3=O)cc1 (centres unmarked) [Compound 35, N-(4-acetamidophenyl) gambogamide]	%	3.3
CC(C)=CCC[C@]1(C)C=Cc2c(O)c3c(c(CC=C(C)C)c2O1)O[C@]12C(=C[C@@H]4C[C@H]1C(C)(C)O[C@@]2(C/C=C(/C)C(=O)O)C4=O)C3=O [GA, Gambogic acid]	%	20
CC(C)=CCCC1(C)C=Cc2c(O)c3c(c(CC=C(C)C)c2O1)OC12C(=CC4CC1C(C)(C)OC2(C/C=C(/C)C(=O)Nc1nccs1)C4=O)C3=O (centres unmarked) [Compound 32, Thiazol-2-gambogamide]	%	0
CC(=O)Nc1ccc(NC(=O)/C(C)=C\CC23OC(C)(C)C4CC(C=C5C(=O)c6c(O)c7c(c(CC8OC8(C)C)c6OC542)OC(C)(CCC2OC2(C)C)C=C7)C3=O)cc1 (centres unmarked) [Compound 36]	%	0

###

Known pIC50 of a selection of compounds
Tested on: A549
Experiment: MTT assay, cell proliferation
Format: cell-based
Conditions: Homo sapiens, 24 h, read-out: IC50, inhibition of cell proliferation
pIC50: −log10 of the molar value.
Reported endpoint: pIC50

Compound	System under test	Reported endpoint	Reading qualifier	Quantitative result
CC(C)=CCCC1(C)C=Cc2c(O)c3c(c(CC=C(C)C)c2O1)OC12C(=CC4CC1C(C)(C)OC2(C/C=C(/C)C(=O)Oc1cccc(C)c1[N+](=O)[O-])C4=O)C3=O (centres unmarked) [Compound 14, 3-Methyl-2-nitrophenyl gambogate]	A549	pIC50	<	4.10
CC(=O)Nc1ccc(NC(=O)/C(C)=C\CC23OC(C)(C)C4CC(C=C5C(=O)c6c(O)c7c(c(CC=C(C)C)c6OC542)OC(C)(CCC=C(C)C)C=C7)C3=O)cc1 (centres unmarked) [Compound 35, N-(4-acetamidophenyl) gambogamide]	A549	pIC50	=	6.30
C=CCc1ccc(OC(=O)/C(C)=C\CC23OC(C)(C)C4CC(C=C5C(=O)c6c(O)c7c(c(CC=C(C)C)c6OC542)OC(C)(CCC=C(C)C)C=C7)C3=O)c(OC)c1 (centres unmarked) [Compound 3, 4-Allyl-2-methoxyphenyl gambogate]	A549	pIC50	=	4.42
CCCC(=O)Nc1ccc(OC(=O)/C(C)=C\CC23OC(C)(C)C4CC(C=C5C(=O)c6c(O)c7c(c(CC=C(C)C)c6OC542)OC(C)(CCC=C(C)C)C=C7)C3=O)cc1 (centres unmarked) [Compound 26, 4-Butyramidophenyl gambogate]	A549	pIC50	=	5.40
CC(C)=CCCC1(C)C=Cc2c(O)c3c(c(CC=C(C)C)c2O1)OC12C(=CC4CC1C(C)(C)OC2(C/C=C(/C)C(=O)Oc1ccccc1Br)C4=O)C3=O (centres unmarked) [Compound 17, 2-Bromophenyl gambogate]	A549	pIC50	<	4.10
COc1ccc(-c2csc(NC(=O)/C(C)=C\CC34OC(C)(C)C5CC(C=C6C(=O)c7c(O)c8c(c(CC=C(C)C)c7OC653)OC(C)(CCC=C(C)C)C=C8)C4=O)n2)cc1 (centres unmarked) [Compound 31, 4-(4-Methoxyphenyl)thiazol-2-gambogamide]	A549	pIC50	=	4.21
CC(C)=CCCC1(C)C=Cc2c(O)c3c(c(CC=C(C)C)c2O1)OC12C(=CC4CC1C(C)(C)OC2(C/C=C(/C)C(=O)Oc1cccc(C#N)c1)C4=O)C3=O (centres unmarked) [Compound 12, 3-Cyanophenyl gambogate]	A549	pIC50	=	4.97
COc1ccc(OC(=O)/C(C)=C\CC23OC(C)(C)C4CC(C=C5C(=O)c6c(O)c7c(c(CC=C(C)C)c6OC542)OC(C)(CCC=C(C)C)C=C7)C3=O)cc1 (centres unmarked) [Compound 13, 4-Methoxyphenyl gambogate]	A549	pIC50	=	4.18
CC(C)=CCCC1(C)C=Cc2c(O)c3c(c(CC=C(C)C)c2O1)OC12C(=CC4CC1C(C)(C)OC2(C/C=C(/C)C(=O)Sc1nccs1)C4=O)C3=O (centres unmarked) [Compound 29, S-thiazol-2-yl gambogthioate]	A549	pIC50	=	6.20
CC(=O)Nc1ccc(SC(=O)/C(C)=C\CC23OC(C)(C)C4CC(C=C5C(=O)c6c(O)c7c(c(CC=C(C)C)c6OC542)OC(C)(CCC=C(C)C)C=C7)C3=O)cc1 (centres unmarked) [Compound 30, 4-Acetamidophenyl gambogthioate]	A549	pIC50	=	5.91
CC(C)=CCCC1(C)C=Cc2c(O)c3c(c(CC=C(C)C)c2O1)OC12C(=CC4CC1C(C)(C)OC2(C/C=C(/C)C(=O)Oc1ccc2ccc(=O)oc2c1)C4=O)C3=O (centres unmarked) [Compound 7, Coumarin-7-gambogate]	A549	pIC50	=	4.81
CC(=O)Nc1ccc(OC(=O)/C(C)=C\CC23OC(C)(C)C4CC(C=C5C(=O)c6c(O)c7c(c(CC=C(C)C)c6OC542)OC(C)(CCC=C(C)C)C=C7)C3=O)cc1 (centres unmarked) [Compound 4, 4-Acetamidephenyl gambogate]	A549	pIC50	=	6.02
CC(=O)Nc1ccc(NC(=O)/C(C)=C\CC23OC(C)(C)C4CC(C=C5C(=O)c6c(O)c7c(c(CC8OC8(C)C)c6OC542)OC(C)(CCC2OC2(C)C)C=C7)C3=O)cc1 (centres unmarked)	A549	pIC50	=	5.89
CC(=O)c1ccc(OC(=O)/C(C)=C\CC23OC(C)(C)C4CC(C=C5C(=O)c6c(O)c7c(c(CC=C(C)C)c6OC542)OC(C)(CCC=C(C)C)C=C7)C3=O)c([N+](=O)[O-])c1 (centres unmarked) [Compound 5, 2-Nitro-4-ethanonephenyl gambogate]	A549	pIC50	=	5.26
CC(C)=CCC/C(C)=C/COC(=O)/C(C)=C\CC12OC(C)(C)C3CC(C=C4C(=O)c5c(O)c6c(c(CC=C(C)C)c5OC431)OC(C)(CCC=C(C)C)C=C6)C2=O (centres unmarked) [Compound 10, Geraniol gambogate]	A549	pIC50	<	4.10
CC(C)=CCCC1(C)C=Cc2c(O)c3c(c(CC=C(C)C)c2O1)OC12C(=CC4CC1C(C)(C)OC2(C/C=C(/C)C(=O)Nc1nc2ccccc2s1)C4=O)C3=O (centres unmarked) [Compound 34, N-(benzo[d]thiazol-2-yl) gambogamide]	A549	pIC50	=	4.67
CC(C)=CCCC1(C)C=Cc2c(O)c3c(c(CC=C(C)C)c2O1)OC12C(=CC4CC1C(C)(C)OC2(C/C=C(/C)C(=O)Oc1ccc(Br)c(F)c1F)C4=O)C3=O (centres unmarked) [Compound 24, 4-Bromo-2,3-difluorophenyl gambogate]	A549	pIC50	<	4.10
